system: HCT-116; assay: Inhibition of cell growth in human HCT116 cells; type: functional, cell-based
MEASUREMENT_NAME: IC50 (µM)

* CC[C@@]12CCCN3CCc4c(n(c5ccccc45)[C@H](c4ccc(O)c5c4N[C@@H]4CC[C@@]6(CC)CCCN7CC[C@@]54[C@H]76)C1)[C@H]32 | 5.7

====

test system: HL-60; test: Inhibition of cell growth in human HL60 cells; assay type: functional, cell-based
pIC50: −log10 of the molar value.
MEASUREMENT_NAME: pIC50

- CC[C@@]12CCCN3CCc4c(n(c5ccccc45)[C@H](c4ccc(O)c5c4N[C@@H]4CC[C@@]6(CC)CCCN7CC[C@@]54[C@H]76)C1)[C@H]32: 4.96

====

system: A549; assay: Inhibition of cell growth in human A549 cells; format: functional, cell-based
MEASUREMENT_NAME: IC50

* CC[C@@]12CCCN3CCc4c(n(c5ccccc45)[C@H](c4ccc(O)c5c4N[C@@H]4CC[C@@]6(CC)CCCN7CC[C@@]54[C@H]76)C1)[C@H]32 [BISLEUCONOTHINE A] | 7 µM
